Test: yeast display, Sf9 membrane polyspecificity reagent, FACS + sequencing; frameworks hold sequencing errors
property: polyreactivity (PSR sort gate)

QVQLVESGGGLVQAGGSLRLSCAASGSIFLRYAMGWYRQAPGKERELVATISKSGGSTYYADSVKGRFTISRDNAKNTVYLQMNSLKPEDTAVYYCAAGYVYFQTYYYWGQGTQVTVSS ... high polyreactivity
QVQLVESGGGLVQAGGSLRLSCAASGSTFLSYAMGWYRQAPGTERELVAGIDWSTGDTYYADSEKGRFTISRDNAKNTVYLQMNSLKPEDTAVYYCNKANLYRFWEIDYWGQGTQVTLSS ... high polyreactivity

###

Test: yeast display, Sf9 membrane polyspecificity reagent, FACS + sequencing; frameworks hold sequencing errors
property: polyreactivity (PSR sort gate)

QVQLVESGGGLVQAGGSLRLSCAASGFIFQYYAMGWYRQAPGKERELVAAITPSGTSTYYADSVKGRFTISRDNAKNTVYLQMNSLKPEDTAVYYCAVRYYFVDFHSTTGYPYSYDYWGQGTQVTVSS ... low polyreactivity
QVLLVESGGGLVQAGGSLRLSCAASGSTFNYNAMGWYRQAPGKERELVAVITSGGRTNYADSVKGRFTISRDNAKNTVYLQMNSLKPEDTAVYSCNAEHVSYHFNLKYSGESWGQGTQVTVSS ... low polyreactivity
